System: RXF 393
Test: NCI tumour cell line growth inhibition, 48 h
Calls of active or inactive are those of the source. Cut-off read from the data, not from the text of the source: active = GI50 up to about 1.1 µM and inactive = higher.
Lab note: assign the record to one of yes (active), no (inactive)

Reference set (3 entries):
Compound	Assigned Category
O=c1[nH]c2ccccc2c(=O)c2cc3ccccc3cc12	no
C=C1[C@H]2O[C@H]2[C@@H](OC(C)=O)[C@@]2(C)[C@@H](OC(C)=O)C[C@@H](OC(=O)CCC)[C@@](C)(O)[C@@H]2[C@@H](OC(C)=O)[C@]2(O)[C@@H](C)C(=O)O[C@H]2[C@H]1Cl	no
C/C(=N\O)c1ccc(Nc2c3ccccc3nc3occc23)cc1	yes

Could you kindly confirm the outcome this assay logged for `COc1ccc(-c2nc(N3CCCC3)no2)cc1` ? no

// return assay outcome for `COc1ccc(C(=O)/C=C2\C(=O)Nc3ccc(Br)cc32)cc1` no

I'd appreciate the recorded outcome for CC(=O)SC(C[N+](=O)[O-])c1ccc2c(c1)OCO2 (centres undefined) from this test. no

Any idea what this test logged for `O=C1OC2(CCCCC2)C(Oc2ccc(Cl)cc2)=C1F` ? no

Tell me the recorded outcome of this test for OCC1OC(N2CCN(C3OC(CO)C(O)C(O)C3O)CC2)C(O)C(O)C1O (centres undefined) . no

Please indicate how the test categorized C/C=C1/CN2CCC34C5=CC(=O)C(c6cc7c(cc6OC)N(C)C6=C(C(=O)OC)CC8(CC)CCCN9CCC67C98)=CC5=NC23CCC1C4C(=O)OC (centres undefined) . no

State the result this test recorded for N#CC1(Cc2ccccc2)CCCCN1C(=O)c1ccccc1 (centres undefined) . no

Recorded call for C=CC[P@@]1(=O)O[C@H](c2ccccc2)C(C)N1C(C)C (some centres undefined) ? no

----------
Tested on: NCI-H226
Assay: NCI tumour cell line growth inhibition, 48 h
The source made the active and inactive calls. Rule as the data show it: active = GI50 up to about 1.1 µM and inactive = higher.
Recorded GI50 values for a group of molecules are listed next.

Molecule	GI50
COc1cc2c3c4c1OCc1c5c(cc(c1-4)CC3[N+](C)(C)CC2)OCO5 (stereo unspecified)	32.3 µM (inactive)
O=C(Cc1ccccc1)NN1C(=O)/C(=C\c2cccc([N+](=O)[O-])c2)S/C1=N\c1ccccc1	> 100 µM (inactive)
CCOC(=O)CP(=S)(S)c1ccccc1 (stereo unspecified)	> 100 µM (inactive)
CC(C)=CC(=O)c1c(C(=O)O)nc2ccccc2[n+]1[O-]	> 100 µM (inactive)

Report measured GI50; entry is `CCNCC(=O)Nc1ccc2c(c1)C(=O)c1ccc(NC(=O)CNCC)cc1C2=O` 5.51 µM (inactive)

Determine its reported GI50: COC(=O)C1=C(O)C(C(=O)OC)[C@]2(O)[C@H](C(=O)OC)[C@H]1C[C@@H](c1ccc(C(F)(F)F)cc1)[C@H]2C(=O)OC (stereo partly specified) 1.33 µM (inactive)

----------
Tested on: UACC-62
Experiment: NCI tumour cell line growth inhibition, 48 h
Activity calls are given as the source filed them. Rule as the data show it: active = GI50 up to about 1.1 µM and inactive = higher.
Endpoint Label: GI50

Molecule	GI50
O=C(CSCC(=O)N/N=C\c1ccccc1F)N/N=C\c1ccccc1F	> 100 µM (inactive)

Tell us which GI50 value is on record for `OCCCCn1cc(Cn2ncc3c(NCc4ccccc4)ncnc32)nn1` > 100 µM (inactive)

Give a short answer stating reported GI50 for `O=S(=O)(c1ccccc1)c1cccc2c1NCCC2` . > 10 µM (inactive)
